Recorded values, source patent US9423396B2.

# ASSAY PROTOCOL: Spectroscopic measurements (absorption, emission, quantum yield, extinction coefficient)
# Format: physicochemical
# STUDY CONDITIONS: BDNCA library, extinction coefficient; in M-1 cm-1 (unit assumed)
Catalogue of ε values

These solved cases illustrate the format of a correct answer.
1) CC1=CC(/C=C/C=C/c2ccc(N(C)C)cc2)=[N+]2C1=C(c1ccc(NC(=O)CCl)cc1)c1cccn1[B-]2(F)F [BDNCA-96] = 50,801
2) COc1cc(C=CC=CC2=[N+]3C(=C(c4ccc(NC(=O)CCl)cc4)c4cccn4[B-]3(F)F)C(C)=C2)ccc1OC(C)=O [BDNCA-44] = 12,632
3) COc1ccc(Oc2cccc(/C=C/C3=[N+]4C(=C(c5ccc(NC(=O)CCl)cc5)c5cccn5[B-]4(F)F)C(C)=C3)c2)cc1 [BDNCA-42] = 54,645
4) COc1ccc(/C=C/C2=[N+]3C(=C(c4ccc(NC(=O)CCl)cc4)c4cccn4[B-]3(F)F)C(C)=C2)cc1Cl [BDNCA-274] = 71,670
5) Cc1ccc(/C=C/c2cc(C)c3n2[B-](F)(F)[N+]2=CC=CC2=C3c2ccc(NC(=O)CCl)cc2)cc1[N+](=O)[O-] [BDNCA-255] = 62,059
6) CC1=CC(/C=C/c2c3ccccc3cc3ccccc23)=[N+]2C1=C(c1ccc(NC(=O)CCl)cc1)c1cccn1[B-]2(F)F [BDNCA-6] = 41,465
7) C=CCOc1ccccc1/C=C/C1=[N+]2C(=C(c3ccc(NC(=O)CCl)cc3)c3cccn3[B-]2(F)F)C(C)=C1 [BDNCA-202] = 57,666
8) COc1cc(/C=C/C2=[N+]3C(=C(c4ccc(NC(=O)CCl)cc4)c4cccn4[B-]3(F)F)C(C)=C2)cc(OC)c1 [BDNCA-209] = 62,334
9) CC1=CC(/C=C/c2ccc(Oc3ccc(C)cc3)cc2)=[N+]2C1=C(c1ccc(NC(=O)CCl)cc1)c1cccn1[B-]2(F)F [BDNCA-300] = 102,151
10) COc1ccc(/C=C/C2=[N+]3C(=C(c4ccc(NC(=O)CCl)cc4)c4cccn4[B-]3(F)F)C(C)=C2)cc1OC [BDNCA-62] = 38,169

Reported ε for CC1=CC(/C=C/c2cccc(O)c2Cl)=[N+]2C1=C(c1ccc(NC(=O)CCl)cc1)c1cccn1[B-]2(F)F [BDNCA-283] was 27,460

Reported ε for CC1=CC(/C=C/c2ccc(Br)s2)=[N+]2C1=C(c1ccc(NC(=O)CCl)cc1)c1cccn1[B-]2(F)F [BDNCA-100] was 48,879

Reported ε for CCN(CC)c1ccc(/C=C/C2=[N+]3C(=C(c4ccc(NC(=O)CCl)cc4)c4cccn4[B-]3(F)F)C(C)=C2)cc1 [BDNCA-107] was 56,018

Reported ε for Cc1cc(/C=C/c2ccc3c4c(cccc24)CC3)n2c1C(c1ccc(NC(=O)CCl)cc1)=C1C=CC=[N+]1[B-]2(F)F [BDNCA-89] was 33,501

====

# ASSAY PROTOCOL: Spectroscopic measurements (absorption, emission, quantum yield, extinction coefficient)
# Format: physicochemical
# STUDY CONDITIONS: BDNCA library
The threshold is 0.05. Values of Qunt. Yield beneath it are tagged yes; values meeting or exceeding it are tagged no.

Example cases with answers are listed next.
1) CC1=CC(/C=C/c2c(Cl)ccc(C)c2F)=[N+]2C1=C(c1ccc(NC(=O)CCl)cc1)c1cccn1[B-]2(F)F = no
2) CC1=CC(/C=C/c2ccc(Br)s2)=[N+]2C1=C(c1ccc(NC(=O)CCl)cc1)c1cccn1[B-]2(F)F = no
3) CCc1ccc(/C=C/C2=[N+]3C(=C(c4ccc(NC(=O)CCl)cc4)c4cccn4[B-]3(F)F)C(C)=C2)cc1[N+](=O)[O-] = no

Req: Hi there! Is Qunt. Yield for COc1cc(/C=C/C2=[N+]3C(=C(c4ccc(NC(=O)CCl)cc4)c4cccn4[B-]3(F)F)C(C)=C2)cc(OC)c1 below 0.05, do you know?
Resp: no

Req: Hi there! Is Qunt. Yield for CC1=CC(/C=C/c2c(C)cccc2Cl)=[N+]2C1=C(c1ccc(NC(=O)CCl)cc1)c1cccn1[B-]2(F)F below 0.05, do you know?
Resp: no

Req: Hi there! Is Qunt. Yield for COc1ccc(/C=C/C2=[N+]3C(=C(c4ccc(NC(=O)CCl)cc4)c4cccn4[B-]3(F)F)C(C)=C2)cc1Cl below 0.05, do you know?
Resp: no

Req: Hi there! Is Qunt. Yield for CC1=CC(/C=C/c2nccn2C)=[N+]2C1=C(c1ccc(NC(=O)CCl)cc1)c1cccn1[B-]2(F)F below 0.05, do you know?
Resp: yes

Req: Hi there! Is Qunt. Yield for Cc1cc(/C=C/c2ccccc2OCC(=O)O)n2c1C(c1ccc(NC(=O)CCl)cc1)=C1C=CC=[N+]1[B-]2(F)F below 0.05, do you know?
Resp: yes

Req: Hi there! Is Qunt. Yield for CC1=CC(/C=C/c2cn(C)c3ccccc23)=[N+]2C1=C(c1ccc(NC(=O)CCl)cc1)c1cccn1[B-]2(F)F below 0.05, do you know?
Resp: yes

Req: Hi there! Is Qunt. Yield for Cc1cc(/C=C/c2ccc(-c3ccccc3)cc2)n2c1C(c1ccc(NC(=O)CCl)cc1)=C1C=CC=[N+]1[B-]2(F)F below 0.05, do you know?
Resp: no

Req: Hi there! Is Qunt. Yield for CC(=O)Nc1ccc(/C=C/C2=[N+]3C(=C(c4ccc(NC(=O)CCl)cc4)c4cccn4[B-]3(F)F)C(C)=C2)cc1 below 0.05, do you know?
Resp: yes

Req: Hi there! Is Qunt. Yield for Cc1ccc(/C=C/c2cc(C)c3n2[B-](F)(F)[N+]2=CC=CC2=C3c2ccc(NC(=O)CCl)cc2)s1 below 0.05, do you know?
Resp: no

Req: Hi there! Is Qunt. Yield for Cc1ccc(/C=C/c2cc(C)c3n2[B-](F)(F)[N+]2=CC=CC2=C3c2ccc(NC(=O)CCl)cc2)cc1[N+](=O)[O-] below 0.05, do you know?
Resp: no

Req: Hi there! Is Qunt. Yield for CC1=CC(/C=C/c2ccc(OC(C)(C)C)cc2)=[N+]2C1=C(c1ccc(NC(=O)CCl)cc1)c1cccn1[B-]2(F)F below 0.05, do you know?
Resp: no

Req: Hi there! Is Qunt. Yield for COc1ccc2c(OC)ccc(/C=C/C3=[N+]4C(=C(c5ccc(NC(=O)CCl)cc5)c5cccn5[B-]4(F)F)C(C)=C3)c2c1 below 0.05, do you know?
Resp: yes

Req: Hi there! Is Qunt. Yield for CC1=CC(/C=C/c2ccc(Oc3ccc(C)cc3)cc2)=[N+]2C1=C(c1ccc(NC(=O)CCl)cc1)c1cccn1[B-]2(F)F below 0.05, do you know?
Resp: no

Req: Hi there! Is Qunt. Yield for CC1=CC(/C=C/c2cccc(I)c2)=[N+]2C1=C(c1ccc(NC(=O)CCl)cc1)c1cccn1[B-]2(F)F below 0.05, do you know?
Resp: no
